System: Bacillus subtilis
Assay: Antimicrobial activity against Bacillus subtilis by broth microdilution method
Type: functional
Recorded metric: MIC (µg/mL)
Only the number, expressed in µg/mL, is required.

Some entries whose results are on file:
Query smiles | Result units | MIC
O=C(N/N=C/c1ccccc1)c1ccc(-c2nc3ccccc3[nH]2)cc1 | µg/mL | 25
O=C(N/N=C/c1ccc(C(F)(F)F)cc1)c1ccc(-c2nc3ccccc3[nH]2)cc1 | µg/mL | 50
CN(C)c1ccc(/C=N/NC(=O)c2ccc(-c3nc4ccccc4[nH]3)cc2)cc1 | µg/mL | 25
Cc1ccc(/C=N/NC(=O)c2ccc(-c3nc4ccccc4[nH]3)cc2)cc1 | µg/mL | 50
O=C(O)c1ccc(/C=N/NC(=O)c2ccc(-c3nc4ccccc4[nH]3)cc2)cc1 | µg/mL | 50
O=C(N/N=C/c1ccc([N+](=O)[O-])cc1)c1ccc(-c2nc3ccccc3[nH]2)cc1 | µg/mL | 50

Record "O=C(N/N=C/c1ccc(Cl)cc1)c1ccc(-c2nc3ccccc3[nH]2)cc1" . Reported MIC: 25

// recorded MIC for "N#Cc1ccc(/C=N/NC(=O)c2ccc(-c3nc4ccccc4[nH]3)cc2)cc1" : 50

Consider "COc1ccc(/C=N/NC(=O)c2ccc(-c3nc4ccccc4[nH]3)cc2)cc1" . Its measured MIC is 25

Entry under test: "O=C(N/N=C/c1ccc(Br)cc1)c1ccc(-c2nc3ccccc3[nH]2)cc1" . Its MIC was 25

====

Tested on: Bacillus subtilis
Assay: Antimicrobial activity against Bacillus subtilis by broth microdilution method
Assay type: functional
Recorded metric: MIC (µg/mL)
Supply the numeric figure in µg/mL, leaving out any unit text.

The reported MIC of the molecule "O=C(N/N=C/c1ccc(O)cc1)c1ccc(-c2nc3ccccc3[nH]2)cc1" was 25

Reported MIC of "O=C(N/N=C/c1ccc(F)cc1)c1ccc(-c2nc3ccccc3[nH]2)cc1" : 25

MIC in this record for "O=C(N[C@H](CO)[C@H](O)c1ccc([N+](=O)[O-])cc1)C(Cl)Cl" : 12.5

====

System: Nakaseomyces glabratus
Experiment: Antimicrobial activity against Candida glabrata by broth microdilution method
Type: functional
Recorded measurements of MIC, one per entry
// return numeric value only (unit: µg/mL, not printed)

Compound | Meas value
O=C(N/N=C/c1ccc(Cl)cc1)c1ccc(-c2nc3ccccc3[nH]2)cc1 | 50

Known value: Nakaseomyces glabratus MIC of the compound "CN(C)c1ccc(/C=N/NC(=O)c2ccc(-c3nc4ccccc4[nH]3)cc2)cc1" equals 50

Recorded MIC for "O=C(N/N=C/c1ccc(O)cc1)c1ccc(-c2nc3ccccc3[nH]2)cc1" on Nakaseomyces glabratus was 100

====

Tested on: Klebsiella pneumoniae
Experiment: Antimicrobial activity against Klebsiella pneumoniae by broth microdilution method
Type: functional
Recorded metric: MIC (µg/mL)
Give just the numeric value; µg/mL need not be written.

# annotated cases, reported MIC shown
Query smiles | System | MIC / µg/mL
O=C(N[C@H](CO)[C@H](O)c1ccc([N+](=O)[O-])cc1)C(Cl)Cl | Klebsiella pneumoniae | 12.5
O=C(N/N=C/c1ccccc1)c1ccc(-c2nc3ccccc3[nH]2)cc1 | Klebsiella pneumoniae | 25

Quick note, MIC for "O=C(N/N=C/c1ccc(F)cc1)c1ccc(-c2nc3ccccc3[nH]2)cc1" landed at 25

For reference, reported MIC for "O=C(O)c1ccc(/C=N/NC(=O)c2ccc(-c3nc4ccccc4[nH]3)cc2)cc1" stands at 50

Record "O=C(N/N=C/c1ccc(Cl)cc1)c1ccc(-c2nc3ccccc3[nH]2)cc1" , field MIC: 12.5

Recorded result, "O=C(N/N=C/c1ccc(C(F)(F)F)cc1)c1ccc(-c2nc3ccccc3[nH]2)cc1" , MIC: 25

The measured MIC associated with "CN(C)c1ccc(/C=N/NC(=O)c2ccc(-c3nc4ccccc4[nH]3)cc2)cc1" reads 50

Short answer for "O=C(N/N=C/c1ccc(Br)cc1)c1ccc(-c2nc3ccccc3[nH]2)cc1" : MIC was 12.5

MIC in this record for "Cc1ccc(/C=N/NC(=O)c2ccc(-c3nc4ccccc4[nH]3)cc2)cc1" : 12.5

====

Tested on: Nakaseomyces glabratus
Test: Antimicrobial activity against Candida glabrata by broth microdilution method
Type: functional
Recorded metric: MIC (µg/mL)
Lab book: enter the figure in µg/mL, no units written.

Data point: "COc1ccc(/C=N/NC(=O)c2ccc(-c3nc4ccccc4[nH]3)cc2)cc1" ; MIC = 50

// MIC value for "O=C(N/N=C/c1ccc(C(F)(F)F)cc1)c1ccc(-c2nc3ccccc3[nH]2)cc1" : 100

Form field MIC, entry "N#Cc1ccc(/C=N/NC(=O)c2ccc(-c3nc4ccccc4[nH]3)cc2)cc1" : 100

MIC recorded for this molecule, "Cc1ccc(/C=N/NC(=O)c2ccc(-c3nc4ccccc4[nH]3)cc2)cc1" , is 100

====

Assay: Toxicity in Artemia salina after 24 hrs
Assay type: organism-based
Conditions: in vivo
Items are presented alongside their recorded LC50 at 24 h.

Use these answered entries as a reference point.
Query smiles | Meas value
O=C(N/N=C/c1ccc(Br)cc1)c1ccc(-c2nc3ccccc3[nH]2)cc1 | > 1000 µg/mL
Cc1ccc(/C=N/NC(=O)c2ccc(-c3nc4ccccc4[nH]3)cc2)cc1 | > 1000 µg/mL

Pending molecule:
For "O=C(N/N=C/c1ccc(Cl)cc1)c1ccc(-c2nc3ccccc3[nH]2)cc1" the molecule record lists LC50 at 24 h as > 1000 µg/mL

====

Test system: Nakaseomyces glabratus
Experiment: Antimicrobial activity against Candida glabrata by broth microdilution method
Format: functional
Recorded metric: MIC (µg/mL)
API: value field is a number in µg/mL; no unit string.

Use these answered entries as a reference point.
Molecule | MIC, µg/mL
O=C(N/N=C/c1ccc(F)cc1)c1ccc(-c2nc3ccccc3[nH]2)cc1 | 100
O=C(N/N=C/c1ccccc1)c1ccc(-c2nc3ccccc3[nH]2)cc1 | 100
O=C(N/N=C/c1ccc(Br)cc1)c1ccc(-c2nc3ccccc3[nH]2)cc1 | 100

Reported MIC for "O=C(N/N=C/c1ccc([N+](=O)[O-])cc1)c1ccc(-c2nc3ccccc3[nH]2)cc1" was 100

Lab note: measured MIC of "O=C(O)c1ccc(/C=N/NC(=O)c2ccc(-c3nc4ccccc4[nH]3)cc2)cc1" was 200

Looking up CC(=O)N1CCN(c2ccc(OCC3COC(Cn4ccnc4)(c4ccc(Cl)cc4Cl)O3)cc2)CC1 (stereo unspecified) , I see its MIC listed as 25

====

Tested on: Klebsiella pneumoniae
Test: Antimicrobial activity against Klebsiella pneumoniae by broth microdilution method
Type: functional
Recorded metric: MIC (µg/mL)
Response body: numeric value in µg/mL, unit text excluded.

// below: answered compounds
Query smiles | MIC [µg/mL]
O=C(N/N=C/c1ccc([N+](=O)[O-])cc1)c1ccc(-c2nc3ccccc3[nH]2)cc1 | 25
COc1ccc(/C=N/NC(=O)c2ccc(-c3nc4ccccc4[nH]3)cc2)cc1 | 25
O=C(N/N=C/c1ccc(O)cc1)c1ccc(-c2nc3ccccc3[nH]2)cc1 | 25

Here "N#Cc1ccc(/C=N/NC(=O)c2ccc(-c3nc4ccccc4[nH]3)cc2)cc1" was tested on Klebsiella pneumoniae, and its MIC came to 12.5
